tested on: MDA-MB-231 human breast carcinoma cells; assay: MDA-MB-231 in vitro cellular proliferation inhibition (BrdU); format: cell-based; settings: Table 2, 2-methoxyestradiol modified at position 16; two days; read-out: MDA-MB-231 IC50

- molecule: "COc1cc2c(cc1O)CC[C@@H]1[C@@H]2CC[C@]2(C)[C@@H](O)[C@@H](CO)C[C@@H]12 [methanol (—CH2OH), 16β-methanol-2-methoxyestradiol]"
  unit_descriptor: "µM"
  censoring_operator: "="
  IC50: 22
- molecule: "CCC[C@H]1C[C@H]2[C@@H]3CCc4cc(O)c(OC)cc4[C@H]3CC[C@]2(C)[C@H]1O [n-propyl, 16β-n-propyl-2-methoxyestradiol]"
  unit_descriptor: "µM"
  censoring_operator: "="
  IC50: 36
- molecule: "COc1cc2c(cc1O)CC[C@@H]1[C@@H]2CC[C@]2(C)[C@@H](O)[C@@H](CN(C)C)C[C@@H]12"
  unit_descriptor: "µM"
  censoring_operator: "="
  IC50: 22
- molecule: "CCC[C@@H]1C[C@H]2[C@@H]3CCc4cc(O)c(OC)cc4[C@H]3CC[C@]2(C)[C@H]1O [n-propyl (—CH2CH2CH3), 16α-n-propyl-2-methoxyestradiol]"
  unit_descriptor: "µM"
  censoring_operator: ">"
  IC50: 50
- molecule: "COc1cc2c(cc1O)CC[C@@H]1[C@@H]2CC[C@]2(C)[C@@H](O)[C@@H](C)C[C@@H]12 [methyl, 16β-methyl-2methoxyestradiol]"
  unit_descriptor: "µM"
  censoring_operator: "="
  IC50: 5
- molecule: "COc1cc2c(cc1O)CC[C@@H]1[C@@H]2CC[C@]2(C)[C@@H](O)[C@H](C)C[C@@H]12 [methyl (—CH3), 16α-methyl-2methoxyestradiol]"
  unit_descriptor: "µM"
  censoring_operator: "<"
  IC50: 0.5
- molecule: "COc1cc2c(cc1O)CC[C@@H]1[C@@H]2CC[C@]2(C)[C@@H](O)CC[C@@H]12 [Example 2ME2, 2-Methoxyestradiol, reference compound]"
  unit_descriptor: "µM"
  censoring_operator: "="
  IC50: 0.9
- molecule: "CCC1C[C@H]2[C@@H]3CCc4cc(O)c(OC)cc4[C@H]3CC[C@]2(C)[C@H]1O (mixture of isomers) [ethyl (—CH2CH3), Racemic 16-ethyl-2-methoxyestradiol]"
  unit_descriptor: "µM"
  censoring_operator: "="
  IC50: 3
- molecule: "CCCC[C@H]1C[C@H]2[C@@H]3CCc4cc(O)c(OC)cc4[C@H]3CC[C@]2(C)[C@H]1O [n-butyl, 16β-n-butyl-2-methoxyestradiol]"
  unit_descriptor: "µM"
  censoring_operator: "="
  IC50: 39

This collection of values is drawn from patent US20060135796A1.
